- MEASUREMENT TARGET: Integrin beta-1 (Homo sapiens) + Integrin alpha-4 (Homo sapiens) (UniProt P13612+P05556)
- Sequence (P05556 whole entry, looked up): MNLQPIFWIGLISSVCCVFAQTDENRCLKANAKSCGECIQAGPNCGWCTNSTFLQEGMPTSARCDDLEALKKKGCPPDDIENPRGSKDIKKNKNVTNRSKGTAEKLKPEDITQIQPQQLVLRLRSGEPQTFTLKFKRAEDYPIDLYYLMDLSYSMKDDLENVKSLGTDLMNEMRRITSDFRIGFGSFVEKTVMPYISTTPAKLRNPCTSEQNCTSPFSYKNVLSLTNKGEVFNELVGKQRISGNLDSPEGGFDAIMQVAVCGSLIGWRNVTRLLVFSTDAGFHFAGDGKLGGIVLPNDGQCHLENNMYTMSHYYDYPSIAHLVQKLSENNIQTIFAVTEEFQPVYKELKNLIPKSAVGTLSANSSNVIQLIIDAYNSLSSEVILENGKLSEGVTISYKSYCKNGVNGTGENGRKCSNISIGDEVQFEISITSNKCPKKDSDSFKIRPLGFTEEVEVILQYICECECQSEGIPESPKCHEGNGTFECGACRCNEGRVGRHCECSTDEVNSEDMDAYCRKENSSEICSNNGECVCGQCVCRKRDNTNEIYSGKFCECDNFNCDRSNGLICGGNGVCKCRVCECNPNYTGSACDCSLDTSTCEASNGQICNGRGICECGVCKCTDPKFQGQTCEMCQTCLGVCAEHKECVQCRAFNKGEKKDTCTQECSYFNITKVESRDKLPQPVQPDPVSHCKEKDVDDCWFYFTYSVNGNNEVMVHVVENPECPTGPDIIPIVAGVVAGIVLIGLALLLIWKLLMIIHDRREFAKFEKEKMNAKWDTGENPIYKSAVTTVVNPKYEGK
- Sequence (P13612 whole entry, looked up): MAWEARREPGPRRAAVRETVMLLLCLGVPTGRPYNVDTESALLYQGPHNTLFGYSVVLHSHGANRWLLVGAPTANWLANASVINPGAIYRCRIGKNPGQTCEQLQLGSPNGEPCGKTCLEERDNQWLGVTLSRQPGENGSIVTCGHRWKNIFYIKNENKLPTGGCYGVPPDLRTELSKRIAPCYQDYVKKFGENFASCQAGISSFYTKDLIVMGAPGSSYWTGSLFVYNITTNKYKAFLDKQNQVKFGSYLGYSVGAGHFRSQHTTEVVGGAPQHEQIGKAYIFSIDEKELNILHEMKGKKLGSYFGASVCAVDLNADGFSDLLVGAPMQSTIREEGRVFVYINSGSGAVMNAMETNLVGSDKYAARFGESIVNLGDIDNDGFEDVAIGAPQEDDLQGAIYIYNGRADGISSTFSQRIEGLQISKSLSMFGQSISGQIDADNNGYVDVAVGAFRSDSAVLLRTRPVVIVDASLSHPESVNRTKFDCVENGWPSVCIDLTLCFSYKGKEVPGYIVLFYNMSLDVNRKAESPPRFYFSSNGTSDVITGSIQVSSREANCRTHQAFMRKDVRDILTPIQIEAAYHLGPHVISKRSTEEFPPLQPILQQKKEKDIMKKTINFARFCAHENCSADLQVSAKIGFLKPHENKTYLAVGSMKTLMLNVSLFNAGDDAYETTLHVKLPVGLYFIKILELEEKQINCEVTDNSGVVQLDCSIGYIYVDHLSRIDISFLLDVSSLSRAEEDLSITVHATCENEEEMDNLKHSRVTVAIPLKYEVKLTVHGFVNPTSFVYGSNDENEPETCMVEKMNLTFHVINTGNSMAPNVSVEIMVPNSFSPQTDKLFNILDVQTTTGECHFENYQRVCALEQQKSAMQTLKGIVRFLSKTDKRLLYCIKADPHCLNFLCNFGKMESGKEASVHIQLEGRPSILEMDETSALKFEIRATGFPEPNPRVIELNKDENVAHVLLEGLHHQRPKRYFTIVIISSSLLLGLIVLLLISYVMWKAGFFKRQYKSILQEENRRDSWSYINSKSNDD
- PROCEDURE TEXT: inhibition of HUTS-21 binding to VLA-4, pilot screen, VLA-4 allosteric modulator project, U937 cells, HUTS-21 mAb, flow cytometry, validation set (AID 2674);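 note: antibody binding induced by the VLA-4 ligand LDV present at three times its Kd; 0% = LDV ligand with antibody and no compound and 100% = antibody without LDV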
- CONDITION NOTES: HUTS-21 LIBS mAb binding, at 6.7 µM, stronger effect = higher value, binding induced by LDV ligand
# inhibition listing for each entry below
Enter your answer as a number in %; do not include the unit.

CCCCC(=O)O[C@]1(C(=O)CO)CC[C@H]2[C@@H]3CCC4=CC(=O)CC[C@]4(C)[C@H]3[C@@H](O)C[C@@]21C ... 4.42
C/C(=N\N=C1\NC(=O)C(CC(=O)Nc2ccc(Cl)cc2)S1)c1ccco1 (stereo not given) ... -17
Cc1ccc(C(=O)N2CC3(C(C)C)CN(C(=O)c4ccc(C)cc4)CC(C(C)C)(C2)C3=O)cc1 ... -30.5

The reported inhibition of the molecule "C[C@]12CCC(=O)C[C@@H]1CC[C@@H]1[C@@H]2CC[C@]2(C)C=CC[C@@H]12" was 5.36

The reported inhibition of the molecule "O=C(/C=C/c1ccccc1)/C=C/c1ccccc1" was 21.4

The reported inhibition of the molecule "Oc1ccc(COCc2ccccc2)c2cccnc12" was -0.43

The reported inhibition of the molecule "COc1ccc(O)c(N)c1" was -22.3

The reported inhibition of the molecule CCc1cccc(OC2OC(CO)C(O)C(O)C2NC(C)=O)c1 (stereo not given) was -5.38

The reported inhibition of the molecule CC(C)=CCCC(C)CN1CCC(N2CCC(C(=O)N3CCCC3)CC2)CC1 (stereo not given) was -11.3

The reported inhibition of the molecule "CCOC(=O)/C=C1\NC(C)(C)Cc2cc(OC)c(OC)cc21" was 5.03

====

# GFP response, % of DMSO listing for each entry below
- PROCEDURE TEXT: modulators of CIT2-GFP expression in yeast, confirmation, S. cerevisiae, GFP fusion, cherry picks, mother/daughter gates (AID 2274)
- CONDITION NOTES: S. cerevisiae CIT2-GFP strain, flow cytometry, 3 h; measured here: mother cell gate; at 10 µM; stronger effect = higher value
Enter your answer as a number in %; do not include the unit.

These solved cases illustrate the format of a correct answer.
COc1ccccc1N1C(=O)c2cccc3c(C(=O)O)ccc(c23)C1=O ... 98.5
O=C1C=C(c2ccc(Cl)cc2)C(=O)N1Nc1ccccc1 ... 53.7
COc1cc(C(=O)ON=C2C3CC4CC(C3)CC2C4)cc(OC)c1OC ... 147
CCCc1nnc(NC(=O)c2nc(S(=O)(=O)Cc3cccc(C)c3)ncc2Cl)s1 ... 98.2

The reported GFP response, % of DMSO of the compound "O=C(Nc1nnc(-c2ccccc2Cl)o1)c1ccc(S(=O)(=O)N2CCCCCC2)cc1" was 98.1

====

- PROCEDURE TEXT: RPL19A-GFP modulators, yeast TOR pathway, confirmation, cell-based, S. cerevisiae, flow cytometry, cherry picks, mother/daughter gates (AID 2270)
- CONDITION NOTES: S. cerevisiae RPL19A-GFP strain, 3 h, measured here: mother cell gate, at 10 µM, stronger effect = lower value, 100 = same GFP as DMSO wells
PROPERTY: GFP response vs DMSO (%)
Enter your answer as a number in %; do not include the unit.

These solved cases illustrate the format of a correct answer.
O=C(NCCCSc1ccccc1)c1cc(Cl)ccc1O ... 102
Nc1ccc2nc(-c3ccc(-c4nc5ccc(N)cc5[nH]4)cc3)[nH]c2c1 ... 96.1
COc1cccc(C(=O)C(C#N)=C(SC)SC)c1 ... 106
Cc1cccc(N2C(=O)C(Cl)=C(Nc3c(C)n(C)n(-c4ccccc4)c3=O)C2=O)c1C ... 103

The reported GFP response vs DMSO of the compound "CCn1c(/C=C/c2ccc([N+](=O)[O-])o2)nc2ccccc2c1=O" was 135

The reported GFP response vs DMSO of the compound "CC(=O)Oc1c(C)cc(Cl)cc1C(=O)Nc1ccc([N+](=O)[O-])cc1Cl" was 98.2

The reported GFP response vs DMSO of the compound "O=C(O)c1ccc(Sc2ccccn2)c([N+](=O)[O-])c1" was 98.2

The reported GFP response vs DMSO of the compound CCOC(=O)C(C(=O)OCC)C(C(=O)OCC)N1CCOCC1 (stereo unspecified) was 61.4

The reported GFP response vs DMSO of the compound "O=C1C(Cl)=C(Nc2ccccc2O)C(=O)N1c1ccccc1" was 97.1

The reported GFP response vs DMSO of the compound "Cc1ccsc1C(=O)N(Cc1nnc(-c2ccccc2Cl)o1)C1CC1" was 95.2

The reported GFP response vs DMSO of the compound "CCC(=O)Nc1cccc(C(=O)/C=C/c2cc(Br)ccc2OC)c1" was 97.7

The measured values listed here are drawn from PubChem BioAssay.
